experiment: Pharmacokinetic study of DRV in rats after oral dosing; type: in vivo, male Wistar rats; settings: male, Wistar, rat, plasma, po, 50 mg/kg
ASSAY ENDPOINT: MRT inf (h)

SMILES ENTRY: CC(C)CN(C[C@@H](O)[C@H](Cc1ccccc1)NC(=O)O[C@H]1CO[C@H]2OCC[C@H]21)S(=O)(=O)c1ccc(N)cc1
ASSAY ENDPOINT: MRT inf
MEASURED RESULT: 7.89

====

test: Pharmacokinetic study of DRV in rats after oral dosing; format: in vivo, male Wistar rats; settings: male, Wistar, rat, plasma, po, 50 mg/kg
ASSAY ENDPOINT: Tmax (h)

MOLECULE: CC(C)CN(C[C@@H](O)[C@H](Cc1ccccc1)NC(=O)O[C@H]1CO[C@H]2OCC[C@H]21)S(=O)(=O)c1ccc(N)cc1 [DRV, darunavir]
ASSAY ENDPOINT: Tmax
MEASURED RESULT: 3
